Target: Virion infectivity factor (Human immunodeficiency virus type 1 group M subtype B (isolate BH10)) + Virion infectivity factor (Human immunodeficiency virus type 1 group M subtype B (isolate BRU/LAI)) + Virion infectivity factor (Human immunodeficiency virus type 1 group M subtype B (isolate PCV12)) + Virion infectivity factor (Human immunodeficiency virus type 1 group M subtype B (isolate HXB2)) + DNA dC->dU-editing enzyme APOBEC-3G (Homo sapiens) (UniProt P69720+P69721+P69722+P69723+Q9HC16)
Assay: inhibitors of Vif binding to APOBEC3G peptide, primary screen, biochemical, TR-FRET, GST-Vif 1-94, biotin-A3G peptide, dose response retest (AID 1117319);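 also: Vif residues 1-94 fused to GST binding biotinylated APOBEC3G peptide 110-148; 0% = full assay without inhibitor and 100% = GST in place of GST-Vif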
Details: active compounds read high
In all, about 260,000 compounds went through this assay and about 1,500 (0.58%) were called active. Another 5% or so got no clear call; they are omitted. A selection follows. Measured potencies and affinities stand elsewhere.
Quick list: inhibition per entry.
Write the answer as a number in %, unit excluded.

// known answers, use as guide
Cc1ccc(NC(=O)c2ccc(Cl)nc2)cc1 : 16.1
CCOC(=O)C1CCCN(c2c(NCC3CCCN3CC)c(=O)c2=O)C1 (stereo not given) : 1.77
O=C(NCCO)C1COc2ccccc2O1 (stereo not given) : -2.17
CC(=O)N(c1ccccc1C)c1ccccc1C : -4.05
Cc1ccc(-c2nc(CS(=O)CC(=O)NCCN3CCCCCC3)c(C)o2)cc1 (stereo not given) : -1.41

What measured inhibition goes with O=C(COC(=O)c1ccc(S(=O)(=O)Nc2ccccc2)cc1)NCc1ccco1 ?
3.75

Quick one: inhibition of CCCC(=O)NC(Nc1c(C)n(C)n(-c2ccccc2)c1=O)C(Cl)(Cl)Cl (stereo not given) ?
-6.76

I'd like to know its inhibition. The compound in question is CNC(=O)c1ccsc1NC(=O)C1CCCN1S(=O)(=O)c1cccs1 (stereo not given)
-0.6

Please look up its inhibition: Cc1ccc(C)c(-n2c(Cc3cc(=O)[nH]c(=O)[nH]3)nnc2SC(C)C)c1
71.3

Query: inhibition; subject: CCOC(=O)N1CCN(c2ccc(Cl)cc2)CC1
-2.77

====

Molecular target: Virion infectivity factor (Human immunodeficiency virus type 1 group M subtype B (isolate BH10)) + Virion infectivity factor (Human immunodeficiency virus type 1 group M subtype B (isolate BRU/LAI)) + Virion infectivity factor (Human immunodeficiency virus type 1 group M subtype B (isolate PCV12)) + Virion infectivity factor (Human immunodeficiency virus type 1 group M subtype B (isolate HXB2)) + DNA dC->dU-editing enzyme APOBEC-3G (Homo sapiens) (UniProt P69720+P69721+P69722+P69723+Q9HC16)
Experiment: inhibitors of Vif binding to APOBEC3G peptide, primary screen, biochemical, TR-FRET, GST-Vif 1-94, biotin-A3G peptide, dose response retest (AID 1117319);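 also: Vif residues 1-94 fused to GST binding biotinylated APOBEC3G peptide 110-148; 0% = full assay without inhibitor and 100% = GST in place of GST-Vif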
Conditions: active compounds read high
The campaign covered roughly 260,000 compounds. About 1,500 (0.58%) were called active. Another 5% or so got no clear call; they are omitted. These entries were drawn from the full list. Measured potencies and affinities stand elsewhere.
# inhibition listing for each entry below
Give the number; % is assumed, so skip it.

Check out these entries, answers already filled in.
COc1cc(CC(=O)OCC(=O)Nc2ccc([N+](=O)[O-])cc2)cc(OC)c1OC : 31.8
CC1CCCC(C)N1C(=O)COc1cccc(Oc2ccccc2)c1 (stereo not drawn) : -6.13
CCC(=O)N1CC2(CC(c3cccc(NC(=O)CC(c4ccccc4)c4ccccc4)c3)=NO2)C[C@H]1C(N)=O (stereo partly drawn) : 4.04

// lookup inhibition for CN(CC(=O)Nc1cccc(F)c1)C(=O)c1cc(-c2ccccc2)nc2ccccc12
-4.43

inhibition for N#CC1=C(S)N=C(N)C(c2nc(-c3ccccc3)cs2)C12CCCCC2 (stereo not drawn) ?
13.7

Consider the compound shown here: COc1ccc([N+](=O)[O-])cc1NC(=O)COC(=O)Cc1cc(OC)c(OC)c(OC)c1 What is its recorded inhibition?
-5.64

Which inhibition value is on record for Cc1ccc(OCC(=O)N2CCOCC2)cc1C ?
-10.7

All figures here come from PubChem BioAssay AID1117319.
